- measuredOn: human TRPV3 receptors (Homo sapiens (Human))
- methodNotes: Calcium flux assay (FLIPR TETRA), inhibition of the 2-APB response
- experimentalConditions: recombinant HEK293 cells stably expressing TRPV3, Calcium-4 dye, 2-APB at its EC80
measuredParameter: IC50

# annotated cases, reported IC50 shown
| compound | measuredParameter | result |
| --- | --- | --- |
| CC(C)(CO)NCc1ccnc(-c2ccc(C(F)(F)F)cc2)n1 [Example 136] | IC50 | > 20 µM |
| C[C@H](O)CNCc1ccnc(-c2ccc(C(F)(F)F)cc2)n1 [Example 180] | IC50 | > 20 µM |

Proceed to the following item.
Ask: Item under review: C[C@H](O)[C@H](CO)NCc1ccnc(-c2ccc(C(F)(F)F)cc2)n1 [Example 149] . Reported IC50?
Result: > 20 µM

---

- measuredOn: human TRPV3 receptors (Homo sapiens (Human))
- methodNotes: Calcium flux assay (FLIPR TETRA), inhibition of the 2-APB response
- Type: cell-based
- experimentalConditions: recombinant HEK293 cells stably expressing TRPV3, Calcium-4 dye, 2-APB at its EC80
pIC50: −log10 of the molar value.
measuredParameter: pIC50

(a) CC1CCN(C(=O)c2ccc(-c3ccc(F)c(CN[C@@H](CO)C(C)C)n3)cc2)CC1
(b) OC[C@H](NCc1nc(-c2ccc(C(F)(F)F)nc2)ccc1F)C1CC1
(c) CC(C)[C@H](CO)NCc1nc(N2Cc3ccc(C(F)(F)F)cc3C2)ccc1F
(d) CC(C)[C@H](CO)NCc1nc(-c2ccc(F)c(F)c2)ccc1F
(e) Cc1nc(-c2ccccc2)sc1-c1ccc(F)c(CN[C@@H](CO)C(C)C)n1
Ask: // sort listed items: pIC50 descending Output spec: labels arranged per the requested ranking.
Result: d, c, e, a, b
(d: 6.85, c: 6.48, e: 6.14, a: 5.88, b: 5.52)

(1) CC(C)[C@H](CO)NCc1nc(C2CCN(C(=O)OC(C)(C)C)CC2)ccc1F
(2) OCC1(NCc2cccc(-c3ccc(F)c(Cl)c3)n2)CCCC1
Ask: Returns: the label, 1 or 2 , whose recorded pIC50 is the lower number. Please reply using the label of the selected record.
Result: 1

---

- measuredOn: human TRPV3 receptors (Homo sapiens (Human), UniProt Q8NET8)
- Sequence (Q8NET8 whole entry): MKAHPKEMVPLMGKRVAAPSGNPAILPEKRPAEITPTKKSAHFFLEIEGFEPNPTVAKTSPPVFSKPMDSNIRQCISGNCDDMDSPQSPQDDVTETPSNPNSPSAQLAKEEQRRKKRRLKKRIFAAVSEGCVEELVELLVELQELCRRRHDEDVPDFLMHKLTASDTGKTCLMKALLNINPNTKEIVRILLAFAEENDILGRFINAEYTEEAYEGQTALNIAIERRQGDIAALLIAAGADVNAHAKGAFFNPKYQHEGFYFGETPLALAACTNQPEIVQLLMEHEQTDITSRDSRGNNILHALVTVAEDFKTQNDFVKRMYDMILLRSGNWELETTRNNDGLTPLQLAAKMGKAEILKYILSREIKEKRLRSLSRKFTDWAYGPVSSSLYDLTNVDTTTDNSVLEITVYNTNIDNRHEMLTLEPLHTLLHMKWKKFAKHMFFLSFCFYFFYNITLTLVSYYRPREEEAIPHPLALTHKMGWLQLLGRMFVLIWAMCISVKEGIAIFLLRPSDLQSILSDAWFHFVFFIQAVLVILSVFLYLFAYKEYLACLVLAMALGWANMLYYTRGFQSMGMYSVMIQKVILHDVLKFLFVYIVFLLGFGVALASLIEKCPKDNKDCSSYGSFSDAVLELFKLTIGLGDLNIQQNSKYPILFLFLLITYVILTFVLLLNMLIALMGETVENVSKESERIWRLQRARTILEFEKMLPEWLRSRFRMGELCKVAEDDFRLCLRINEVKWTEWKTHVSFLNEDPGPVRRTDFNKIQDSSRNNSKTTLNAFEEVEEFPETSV
- methodNotes: Calcium flux assay (FLIPR TETRA), inhibition of the 2-APB response
- experimentalConditions: recombinant HEK293 cells stably expressing TRPV3, Calcium-4 dye, 2-APB at its EC80
# IC50 per entry

| compound | measuredParameter | result |
| --- | --- | --- |
| C[C@@H](O)CNCc1ccnc(-c2ccc(C(F)(F)F)cc2)n1 | IC50 | > 20 µM |
| OC[C@H](NCc1ccnc(-c2ccc(C(F)(F)F)nc2)n1)C1CC1 | IC50 | > 20 µM |
| C[C@H](O)[C@@H](CO)NCc1ccnc(-c2ccc(C(F)(F)F)cc2)n1 | IC50 | > 20 µM |
| OC[C@H]1CCCC[C@@H]1NCc1ccnc(-c2ccc(C(F)(F)F)cc2)n1 | IC50 | > 20 µM |
| CC(C)[C@H](CO)NCc1nc(C2CCCOC2)ccc1F (stereo partly shown) | IC50 | > 20 µM |

Ask: Item under review: CC(C)[C@H](NCc1nc(-c2ccc(C(F)(F)F)nc2)ccc1F)C(N)=O . Reported IC50?
Result: > 20 µM

Ask: Another compound to look at: CC(C)[C@H](CO)NCc1nc(-c2cnn(CC3OCCO3)c2)ccc1F
Result: > 20 µM

Values from patent US9012651B2
